These data points were gathered from the supplement of paper PMC11780869.

Each entry below carries its reported cleaved RNA product abundance.
- Tested on: Bacillus subtilis
- Protocol Details: cleaved RNA product abundance (RNA/gDNA barcode ratio) relative to median wild-type variant (ratio to wild type); higher = more accumulation of the downstream cleavage product
- Condition Notes: experiment (reporter, strain, medium): exp 2b: truncated aprE reporter, strain BJT200; cleavage site: cggR-gapA (positions -7 to +36 mutated)
Measured Endpoint: cleaved RNA product abundance

residue_sequence=ACAGACGAAGGAGCCGCAAAGAAATGATTAAGGGATGAATAATCCCTCAATATAAATATCTCTCACTTATTTAAA reported_value=0.354
residue_sequence=ACAGACGAAGGAGCCGCAAAGAAGTTATTAAGTGATGAATATTCCCTAAATATAAATATCTCTCACTTATTTAAA reported_value=0.115
residue_sequence=ACAGACGAAGGAGCCGCAAAGTATTTATTAAGGGATGAATAATCCCTCAATATAAATATCTCTCACTTATTTAAA reported_value=0.85
residue_sequence=ACAGACGAAGGAGCCGCAAACAAGTTATTAAGGGATGAATAATCTCTCAATATAAATATCTCTCACTTATTTAAA reported_value=0.529
residue_sequence=ACAGACGAAGGAGCCGCAAAGAAGTTATTAAGGAATGAATATTCCCTCAATATAAATATCTCTCACTTATTTAAA reported_value=0.178
residue_sequence=ACAGACGAAGGAGCCGCAAAGAAGTTATTAAGTGATGAATAATACCTCAATATAAATATCTCTCACTTATTTAAA reported_value=0.109
residue_sequence=ACAGACGAAGGAGCCGCAAAGAAGTTATTAAGGGATGAAAAATCCCTCAATATAAAAATCTCTCACTTATTTAAA reported_value=0.798
residue_sequence=ACAGACGAAGGAGCCGCAAAGAAATTATTAAGGGATGAATACTCCCTCAATATAAATATCTCTCACTTATTTAAA reported_value=0.416
residue_sequence=ACAGACGAAGGAGCCGCAAATAAGTTATTAAGGGAGGAATAATCCCTCAATATAAATATCTCTCACTTATTTAAA reported_value=0.554
residue_sequence=ACAGACGAAGGAGCCGCATAGAAGTTATTAAGGGATAAATAATCCCTCAATATAAATATCTCTCACTTATTTAAA reported_value=1.03
residue_sequence=ACAGACGAAGGAGCCGCAAAAAAGTTATTAAGGGATGAATAACCCCTCAATATAAATATCTCTCACTTATTTAAA reported_value=0.455
residue_sequence=ACAGACGAAGGAGCCGCAAAGAAGATATTAAGAGATGAATAATCCCTCAATATAAATATCTCTCACTTATTTAAA reported_value=0.128
residue_sequence=ACAGACGAAGGAGCCGCAAAGAAGTTATTAAGGGAAGAATAATCCCTTAATATAAATATCTCTCACTTATTTAAA reported_value=1.05
residue_sequence=ACAGACGAAGGAGCCGCAAAGAATTTATTAAGGGATGAATAATCCCCCAATATAAATATCTCTCACTTATTTAAA reported_value=0.189
residue_sequence=ACAGACGAAGGAGCCGCAAAGAAGTTATTAAGGTATGAATACTCCCTCAATATAAATATCTCTCACTTATTTAAA reported_value=0.0931
